The values you see were collected from the supplement of paper PMC6555819.

test system: THRa:RXRa (NR concentration 90 nM, RXRa partner concentration 90 nM); assay: PBM binding z-score (relative to random genomic background probes); higher = stronger binding; sequences stand for … in GC…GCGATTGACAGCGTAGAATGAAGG
Measured PBM binding z-score accompanies every entry in the list below.
observation-type: PBM binding z-score

[[record]]
residues = "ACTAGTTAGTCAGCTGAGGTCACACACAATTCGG"
value_measured = 4.76

[[record]]
residues = "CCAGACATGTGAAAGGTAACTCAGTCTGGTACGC"
value_measured = 0.162

[[record]]
residues = "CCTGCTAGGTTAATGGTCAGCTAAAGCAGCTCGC"
value_measured = 0.215

[[record]]
residues = "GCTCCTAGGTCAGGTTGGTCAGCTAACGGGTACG"
value_measured = 2.27

[[record]]
residues = "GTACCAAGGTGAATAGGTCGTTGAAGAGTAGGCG"
value_measured = 1.91

[[record]]
residues = "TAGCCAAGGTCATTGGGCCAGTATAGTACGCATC"
value_measured = 4.06

[[record]]
residues = "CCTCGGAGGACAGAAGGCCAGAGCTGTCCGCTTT"
value_measured = 0.0492

[[record]]
residues = "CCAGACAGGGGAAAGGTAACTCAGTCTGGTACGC"
value_measured = 0.146

[[record]]
residues = "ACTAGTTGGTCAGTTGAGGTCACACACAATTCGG"
value_measured = 5.15

[[record]]
residues = "ATCTCTCGGTAACAAGTTCAGTGAAAGAGAGGAC"
value_measured = 0.976

[[record]]
residues = "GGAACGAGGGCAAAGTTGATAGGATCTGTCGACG"
value_measured = 1.36

[[record]]
residues = "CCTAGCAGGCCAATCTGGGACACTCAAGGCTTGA"
value_measured = 3.08

[[record]]
residues = "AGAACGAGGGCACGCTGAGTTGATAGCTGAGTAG"
value_measured = 1.92

[[record]]
residues = "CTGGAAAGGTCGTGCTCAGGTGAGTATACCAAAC"
value_measured = 4.09

[[record]]
residues = "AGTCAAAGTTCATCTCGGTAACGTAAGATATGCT"
value_measured = 2.58

[[record]]
residues = "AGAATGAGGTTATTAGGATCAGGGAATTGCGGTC"
value_measured = 2.35

[[record]]
residues = "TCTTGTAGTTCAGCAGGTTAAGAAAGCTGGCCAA"
value_measured = 0.683

[[record]]
residues = "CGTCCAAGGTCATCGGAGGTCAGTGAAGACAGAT"
value_measured = 5.45

[[record]]
residues = "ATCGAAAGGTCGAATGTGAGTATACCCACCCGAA"
value_measured = 2.01

[[record]]
residues = "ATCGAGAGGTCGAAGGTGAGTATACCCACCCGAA"
value_measured = 1.82

[[record]]
residues = "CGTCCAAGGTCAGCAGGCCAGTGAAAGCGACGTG"
value_measured = 3.74

[[record]]
residues = "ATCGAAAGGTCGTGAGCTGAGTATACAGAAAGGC"
value_measured = 2.31

[[record]]
residues = "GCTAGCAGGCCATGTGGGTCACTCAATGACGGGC"
value_measured = 0.759

[[record]]
residues = "CCAGACAGGTGAGAAGGTATCTCAGCCTCGATTA"
value_measured = -0.219

[[record]]
residues = "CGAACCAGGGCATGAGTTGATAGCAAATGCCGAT"
value_measured = 0.518

[[record]]
residues = "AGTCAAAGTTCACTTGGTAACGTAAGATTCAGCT"
value_measured = 1.6

[[record]]
residues = "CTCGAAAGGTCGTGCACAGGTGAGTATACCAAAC"
value_measured = 3.21

[[record]]
residues = "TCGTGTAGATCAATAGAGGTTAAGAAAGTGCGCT"
value_measured = 2.09

[[record]]
residues = "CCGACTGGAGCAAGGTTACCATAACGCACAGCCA"
value_measured = 1.16

[[record]]
residues = "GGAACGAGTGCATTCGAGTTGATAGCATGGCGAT"
value_measured = 1.92

[[record]]
residues = "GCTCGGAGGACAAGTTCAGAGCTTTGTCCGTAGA"
value_measured = 1.27

[[record]]
residues = "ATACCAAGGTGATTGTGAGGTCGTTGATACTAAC"
value_measured = 3.66

[[record]]
residues = "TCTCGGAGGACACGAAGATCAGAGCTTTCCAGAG"
value_measured = 1.1

[[record]]
residues = "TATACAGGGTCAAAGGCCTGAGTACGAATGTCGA"
value_measured = 3.28

[[record]]
residues = "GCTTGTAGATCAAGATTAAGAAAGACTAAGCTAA"
value_measured = -0.364

[[record]]
residues = "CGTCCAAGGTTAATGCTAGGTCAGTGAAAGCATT"
value_measured = 3.44

[[record]]
residues = "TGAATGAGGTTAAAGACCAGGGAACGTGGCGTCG"
value_measured = 2.14

[[record]]
residues = "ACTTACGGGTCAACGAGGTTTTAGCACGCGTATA"
value_measured = 3.46

